Target: CXCR3 (Homo sapiens)
Sequence (P49682 whole entry): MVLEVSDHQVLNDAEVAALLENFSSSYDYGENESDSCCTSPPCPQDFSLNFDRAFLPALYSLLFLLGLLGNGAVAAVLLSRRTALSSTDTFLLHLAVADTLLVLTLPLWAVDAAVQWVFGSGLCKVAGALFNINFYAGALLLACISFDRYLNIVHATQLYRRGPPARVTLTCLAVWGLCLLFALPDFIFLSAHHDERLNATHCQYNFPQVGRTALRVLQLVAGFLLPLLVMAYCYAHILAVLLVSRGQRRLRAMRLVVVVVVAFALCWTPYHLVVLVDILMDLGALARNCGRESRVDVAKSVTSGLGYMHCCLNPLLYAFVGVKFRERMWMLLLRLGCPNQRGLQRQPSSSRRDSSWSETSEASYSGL
Assay: Chemotaxis assay ITAC (CXCL11), L1.2-CXCR3 cells
Format: cell-based
Design: expressed in transfected cells
Conditions: 1 nM CXCL11 (I-TAC), 4 hours
MEASURED_PARAMETER: pIC50
Quick note: pIC50 values are minus log10 of concentrations in mol/L.

pIC50 for CXCR3 (Homo sapiens) with input N#Cc1ccc(S(=O)(=O)N(Cc2ccc([N+](=O)[O-])cc2)Cc2ccccn2)cc1 [Example 158] equals 5.32

pIC50 for CXCR3 (Homo sapiens) with input CCOc1ccc(S(=O)(=O)N(Cc2ccc(C(=O)N[C@H]3[C@@H]4CN(C(=O)OC(C)(C)C)C[C@@H]43)cc2)Cc2cccnc2)cc1 [Example 94] equals 6.59

pIC50 for CXCR3 (Homo sapiens) with input CCOc1ccc(S(=O)(=O)N(Cc2ccc(C(=O)NC3(c4ccccc4)CC3)cc2)Cc2ccccn2)cc1 [Example 88] equals 7.52

pIC50 for CXCR3 (Homo sapiens) with input Cn1c(CNC(=O)c2ccc(CN(Cc3ccccn3)S(=O)(=O)c3ccc(C#N)cc3)cc2)nc2ccccc21 [Example 143] equals 6.00

pIC50 for CXCR3 (Homo sapiens) with input N#Cc1ccc(S(=O)(=O)N(Cc2ccc(C(=O)NCCc3ccc(S(N)(=O)=O)cc3)cc2)Cc2ccccn2)cc1 [Example 99] equals 5.99

pIC50 for CXCR3 (Homo sapiens) with input CCOc1ccc(S(=O)(=O)N(Cc2ccc(C(=O)N[C@H](CO)Cc3ccccc3)cc2)Cc2ccccn2)cc1 [Example 87] equals 6.12

pIC50 for CXCR3 (Homo sapiens) with input N#Cc1ccc(S(=O)(=O)N(Cc2ccc(-c3nnn[nH]3)cc2)Cc2ccccc2F)cc1 [Example 83] equals 5.98

pIC50 for CXCR3 (Homo sapiens) with input O=C(NC(C(=O)O)c1ccc(F)c(F)c1)c1ccc(CN(Cc2ccccn2)S(=O)(=O)c2ccc(Cl)cc2)cc1 (stereo not drawn) [Example 149] equals 7.14

pIC50 for CXCR3 (Homo sapiens) with input O=S(=O)(c1ccc(Cl)cc1)N(Cc1ccc(-c2nnn[nH]2)cc1)Cc1c(F)cccc1F [Example 62] equals 6.67
